From: patent US20230242530A1

Target: isolated recombinant JAK2 kinase domain (Homo sapiens)
Construct: isolated recombinant JAK1 and JAK2 kinase domain
Sequence (O60674 849-1124 limits assumed): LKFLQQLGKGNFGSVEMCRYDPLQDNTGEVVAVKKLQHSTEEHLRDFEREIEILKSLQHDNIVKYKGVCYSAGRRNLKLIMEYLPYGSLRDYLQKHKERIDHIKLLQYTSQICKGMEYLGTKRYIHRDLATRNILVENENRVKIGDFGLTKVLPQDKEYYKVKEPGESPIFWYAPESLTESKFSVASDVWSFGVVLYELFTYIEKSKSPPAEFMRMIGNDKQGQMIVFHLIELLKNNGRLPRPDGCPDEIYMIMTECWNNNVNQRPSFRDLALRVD
Experiment: JAK enzyme assay, JAK2 kinase domain (Caliper LabChip)
Conditions: 0.2 nM JAK2, ATP 25 μM, Morrison tight binding model
Method: JAK Enzyme Assays were Carried Out as Follows: The activity of the isolated recombinant JAK1 and JAK2 kinase domain was measured by monitoring phosphorylation of a peptide derived from JAK3 (Val-Ala-Leu-Val-Asp-Gly-Tyr-Phe-Arg-Leu-Thr-Thr, fluorescently labeled on the N-terminus with 5-carboxyfluorescein) using the Caliper LabChip® technology (Caliper Life Sciences, Hopkinton, Mass.). […]
Can you tell me Ki for the items I'm about to list?
Output spec: scalar in nM, unitless text.

Data point: CN1CCN(C(=O)Cn2cc(Nc3nc4c(N5CC(CC#N)(n6cc(CO)cn6)C5)cccn4n3)cn2)CC1 [Example 20] ; Ki = 9.6

Data point: CN1CCN(C(=O)Cn2cc(Nc3nc4c(N5CC(CC#N)(c6cccc(Cl)c6)C5)cccn4n3)cn2)CC1 [Example 35] ; Ki = 2.8

Data point: N#CCC1(n2cc(Br)cn2)CN(c2cccn3nc(Nc4cn[nH]c4)nc23)C1 [Example 128] ; Ki = 0.2

Data point: CCc1cnn(C2(CC#N)CN(c3cccn4nc(Nc5cn[nH]c5)nc34)C2)c1 [Example 2] ; Ki = 32.8

Data point: CN1CCN(C(=O)Cn2cc(Nc3nc4c(N5CC(CC#N)(n6cc(-c7ccccc7F)cn6)C5)cccn4n3)cn2)CC1 [Example 77] ; Ki = 0.6

Data point: Cc1ccccc1-c1cnn(C2(CC#N)CN(c3cccn4nc(Nc5cnn(CC(=O)N6CCC(NCC7(C#N)CC7)CC6)c5)nc34)C2)c1 [Example 118] ; Ki = 7.3

Data point: CCc1cnn(C2(CC#N)CN(c3cccn4nc(Nc5ccc6c(c5)CCN(C5CCOCC5)C6)nc34)C2)c1 [Example 57] ; Ki = 1.3

Data point: CCc1cnn(C2(CC#N)CN(c3nccn4nc(Nc5cn[nH]c5)nc34)C2)c1 [Example 153] ; Ki = 15.5

----------
target: isolated recombinant JAK1 kinase domain (Homo sapiens); construct: isolated recombinant JAK1 and JAK2 kinase domain; test: JAK enzyme assay, JAK1 kinase domain (Caliper LabChip); details: 1.5 nM JAK1, ATP 25 μM, Morrison tight binding model
Sequence (P23458 875-1153 limits assumed): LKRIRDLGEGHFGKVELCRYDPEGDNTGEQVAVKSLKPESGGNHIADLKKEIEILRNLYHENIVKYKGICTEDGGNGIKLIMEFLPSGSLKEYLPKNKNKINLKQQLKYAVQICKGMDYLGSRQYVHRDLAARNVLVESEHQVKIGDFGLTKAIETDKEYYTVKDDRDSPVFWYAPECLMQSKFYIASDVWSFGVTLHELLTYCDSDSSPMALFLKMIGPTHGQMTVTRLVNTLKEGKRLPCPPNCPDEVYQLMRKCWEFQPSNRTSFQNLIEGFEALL
reported-property: pKi
# log scale: pKi equals minus log10 of the concentration in mol/L

Data point: CN1CCN(C(=O)c2cccc(Nc3nc4c(N5CC(CC#N)(n6cc(C(F)(F)F)cn6)C5)cccn4n3)c2)CC1 [Example 110] ; pKi = 9.10

Data point: CCc1cnn(C2(CC#N)CN(c3cccn4nc(Nc5cnn(CC(=O)N(C)C)c5)nc34)C2)c1 [Example 143] ; pKi = 9.22

Data point: CCc1cnn(C2(CC#N)CN(c3cccn4nc(Nc5ccc6c(c5)CCN(C5COC5)C6)nc34)C2)c1 [Example 51] ; pKi = 9.52

Data point: CSc1cnn(C2(CC#N)CN(c3cccn4nc(Nc5cnn(CC(=O)N6CCN(C)CC6)c5)nc34)C2)c1 [Example 119] ; pKi = 9.52

Data point: N#CCC1(n2cc(C(F)(F)F)cn2)CN(c2cccn3nc(Nc4cnn(CCCO)c4)nc23)C1 [Example 136] ; pKi = 9.05

Data point: CN1CCN(C(=O)Cn2cc(Nc3nc4c(N5CC(CC#N)(CCc6ccccc6)C5)cccn4n3)cn2)CC1 [Example 76] ; pKi = 9.52

Data point: CCc1cnn(C2(CC#N)CN(c3cccn4nc(Nc5cccc(CC(=O)N6CCN(C)CC6)c5)nc34)C2)c1 [Example 5] ; pKi = 8.72
